meta.source: ChEMBL document CHEMBL1908284

In this section, each of the molecules is paired with its reported Ratio_ATPase activity.
Biological target: ATP-dependent translocase ABCB1 (Homo sapiens, UniProt P08183);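 note: Compound-stimulated ATPase activity measured in membrane preparations of MDR1-expressing Sf9 cells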
Sequence (P08183 whole entry): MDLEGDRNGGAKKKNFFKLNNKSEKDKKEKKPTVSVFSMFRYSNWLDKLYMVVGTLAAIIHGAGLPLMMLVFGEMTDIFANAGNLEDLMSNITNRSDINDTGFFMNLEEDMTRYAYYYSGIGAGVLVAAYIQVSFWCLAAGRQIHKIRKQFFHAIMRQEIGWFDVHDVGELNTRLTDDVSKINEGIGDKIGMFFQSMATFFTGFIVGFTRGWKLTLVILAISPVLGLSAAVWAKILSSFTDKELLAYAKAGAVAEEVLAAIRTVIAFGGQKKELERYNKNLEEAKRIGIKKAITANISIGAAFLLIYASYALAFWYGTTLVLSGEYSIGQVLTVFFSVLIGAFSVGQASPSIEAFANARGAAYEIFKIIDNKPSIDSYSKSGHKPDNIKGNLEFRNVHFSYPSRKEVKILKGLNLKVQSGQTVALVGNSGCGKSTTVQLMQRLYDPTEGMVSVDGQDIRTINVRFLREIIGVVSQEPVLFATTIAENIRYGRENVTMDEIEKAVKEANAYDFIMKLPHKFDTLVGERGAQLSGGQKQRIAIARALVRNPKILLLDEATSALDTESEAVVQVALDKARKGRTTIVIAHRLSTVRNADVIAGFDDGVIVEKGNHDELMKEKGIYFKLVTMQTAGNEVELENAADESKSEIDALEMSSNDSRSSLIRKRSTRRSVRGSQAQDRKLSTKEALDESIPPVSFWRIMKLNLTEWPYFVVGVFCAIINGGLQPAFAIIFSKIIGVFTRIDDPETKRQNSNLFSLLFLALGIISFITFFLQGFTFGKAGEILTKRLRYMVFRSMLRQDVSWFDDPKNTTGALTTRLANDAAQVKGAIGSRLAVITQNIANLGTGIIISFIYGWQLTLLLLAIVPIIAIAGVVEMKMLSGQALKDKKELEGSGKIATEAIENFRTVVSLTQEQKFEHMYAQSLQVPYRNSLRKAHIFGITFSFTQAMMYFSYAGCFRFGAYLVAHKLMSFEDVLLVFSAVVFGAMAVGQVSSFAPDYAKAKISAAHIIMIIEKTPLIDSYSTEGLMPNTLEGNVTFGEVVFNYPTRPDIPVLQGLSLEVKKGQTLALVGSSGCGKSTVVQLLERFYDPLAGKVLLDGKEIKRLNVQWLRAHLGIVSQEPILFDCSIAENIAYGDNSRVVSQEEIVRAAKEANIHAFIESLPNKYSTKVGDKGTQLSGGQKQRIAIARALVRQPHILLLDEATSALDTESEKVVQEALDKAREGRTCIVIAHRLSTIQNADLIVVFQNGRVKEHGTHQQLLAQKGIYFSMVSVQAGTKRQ
Conditions: spodoptera frugiperda, sf9, 20 µM
Starred links: 1 amine or outer side, 2 acyl side, 3 side chain; linkers in the order of their positions; H or OH if unused. Positions of bridges follow the written chain, without caps; N, C: chain ends. Non-standard residues stand in square brackets, D forms with d. Residues, ends and D or L forms follow the SMILES beside them. Chains are numbered I, II in the order given. Actinocin(9to1) = Cc1c2oc3c(C)ccc(C(=O)[*:1])c3nc-2c(C(=O)[*:2])c(N)c1=O; NMeV = CN[C@H](C(=O)O)C(C)C; Sar = CNCC(=O)O
Number, no unit, nothing else.

Past entries and their recorded results:
molecule="CCOC(=O)C1=C(C)NC(C)=C(C(=O)OC)C1c1cccc([N+](=O)[O-])c1 (stereo unspecified) [NITRENDIPINE]" recordedresult=3.22
molecule="Cc1c2oc3c(C)ccc(C(=O)N[C@@H]4C(=O)N[C@H](C(C)C)C(=O)N5CCC[C@H]5C(=O)N(C)CC(=O)N(C)[C@@H](C(C)C)C(=O)O[C@@H]4C)c3nc-2c(C(=O)N[C@@H]2C(=O)N[C@H](C(C)C)C(=O)N3CCC[C@H]3C(=O)N(C)CC(=O)N(C)[C@@H](C(C)C)C(=O)O[C@@H]2C)c(N)c1=O [DACTINOMYCIN] (I: T[dV]P[Sar][NMeV] / II: T[dV]P[Sar][NMeV]; ester I:1-I:C, II:1-II:C; linker I:N-II:N via Actinocin(9to1))" recordedresult=1.2
molecule="C[C@]12CC[C@H]3[C@@H](CCC4=CC(=O)CC[C@@]43C)[C@@H]1CC[C@@H]2O [TESTOSTERONE]" recordedresult=1.32
molecule="CC(=O)O[C@H]1C(=O)[C@@]2(C)[C@H]([C@H](OC(=O)c3ccccc3)[C@]3(O)C[C@H](OC(=O)[C@H](O)[C@@H](NC(=O)c4ccccc4)c4ccccc4)C(C)=C1C3(C)C)[C@]1(OC(C)=O)CO[C@@H]1C[C@@H]2O [PACLITAXEL]" recordedresult=2.63

Please give the measured Ratio_ATPase activity for this molecule: CN(C)C(=O)Oc1cccc([N+](C)(C)C)c1.[Br-] [NEOSTIGMINE BROMIDE]
1.06

Please give the measured Ratio_ATPase activity for this molecule: CN(C)C(=O)C(CCN1CCC(O)(c2ccc(Cl)cc2)CC1)(c1ccccc1)c1ccccc1 [LOPERAMIDE]
3.75

Please give the measured Ratio_ATPase activity for this molecule: CCC(C)n1ncn(-c2ccc(N3CCN(c4ccc(OCC5COC(Cn6cncn6)(c6ccc(Cl)cc6Cl)O5)cc4)CC3)cc2)c1=O (stereo unspecified) [ITRACONAZOLE]
1.2

Please give the measured Ratio_ATPase activity for this molecule: CC[C@]1(O)C[C@@H]2CN(CCc3c([nH]c4ccccc34)[C@@](C(=O)OC)(c3cc4c(cc3OC)N(C)[C@H]3[C@@](O)(C(=O)OC)[C@H](OC(C)=O)[C@]5(CC)C=CCN6CC[C@]43[C@@H]65)C2)C1 [VINBLASTINE]
4.31

Please give the measured Ratio_ATPase activity for this molecule: "CC(C)(C)NC(=O)[C@@H]1C[C@@H]2CCCC[C@@H]2CN1C[C@@H](O)[C@H](Cc1ccccc1)NC(=O)[C@H](CC(N)=O)NC(=O)c1ccc2ccccc2n1"
7.11

Please give the measured Ratio_ATPase activity for this molecule: "CCOc1ccc(-c2nc3cc(-c4nc5cc(N6CCN(C)CC6)ccc5[nH]4)ccc3[nH]2)cc1"
0.86

Please give the measured Ratio_ATPase activity for this molecule: "CN1CCC[C@@H]1Cc1c[nH]c2ccc(CCS(=O)(=O)c3ccccc3)cc12"
2.22
